target: human glucagon receptor (human) (UniProt P47871); assay: cell-based or functional assay
Sequence (P47871 26-477): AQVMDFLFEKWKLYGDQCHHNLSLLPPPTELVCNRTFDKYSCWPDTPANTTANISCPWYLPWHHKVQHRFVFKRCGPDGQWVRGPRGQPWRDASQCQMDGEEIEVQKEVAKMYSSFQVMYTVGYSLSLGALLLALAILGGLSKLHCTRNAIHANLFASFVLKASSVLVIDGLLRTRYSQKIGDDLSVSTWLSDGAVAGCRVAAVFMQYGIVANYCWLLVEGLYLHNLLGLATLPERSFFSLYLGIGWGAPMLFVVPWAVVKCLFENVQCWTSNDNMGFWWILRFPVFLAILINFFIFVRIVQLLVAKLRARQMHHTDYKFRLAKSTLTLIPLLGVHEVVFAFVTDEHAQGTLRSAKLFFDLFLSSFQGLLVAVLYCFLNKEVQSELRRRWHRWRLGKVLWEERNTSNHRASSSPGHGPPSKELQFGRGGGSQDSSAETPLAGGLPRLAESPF
For each record, write down the corresponding Relative cAMP EC50.

Given YXQGTXTSDXXIXLDXKYQXEFIEXLVEGGPSSGAPPPSGS (synthetic construct; SITE 2: note = 2-Aminoisobutyric Acid; SITE 6: note = alpha-methyl-2-fluoro-L-phenylalanine; SITE 10: note = 3-(4-Pyridyl)-L-alanine; SITE 11: note = alpha-methyl-L-serine; SITE 13: note = alpha-methyl-leucine; SITE 16: note = L-ornithine; SITE 17: note = Lysine is chemically mo) [Example 767] , state its recorded Relative cAMP EC50.
1.13 nM

Try this binder too: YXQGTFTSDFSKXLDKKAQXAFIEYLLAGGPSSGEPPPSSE (Aib, αMeL; acylated Lys; C-terminal amide; synthetic construct; SITE 2: note = 2-Aminoisobutyric Acid; SITE 13: note = alpha-methyl-leucine; SITE 17: note = Lysine is chemically modified through conjugation of the epsilon-amino group of the Lysine side chain with (2-[2-(2-Amino-ethoxy)-ethoxy]-acetyl)-(gamma-Glu)-CO-(CH2) 18-CO2H; SITE 20: n) [Example 3]
3.8 nM

Try this binder too: YXQGTFTSDXSXXLDKKAQXAFIEYLIAGGPSSGEPPPSGTE (synthetic construct; SITE 2: note = 2-Aminoisobutyric Acid; SITE 10: note = 3-(4-Pyridyl)-L-alanine; SITE 12: note = L-ornithine; SITE 13: note = alpha-methyl-leucine; SITE 17: note = Lysine is chemically modified through conjugation of the epsilon-amino group of the Lysine side chain with (gamma-Gl)) [Example 980]
2.41 nM

Try this binder too: YXQGTFTSDFSKXLDKKAQXAFIEYLLEGGPSSGAPPPGEG (Aib, αMeL, acylated Lys, C-terminal amide; synthetic construct; SITE 2: note = 2-Aminoisobutyric Acid; SITE 13: note = alpha-methyl-leucine; SITE 17: note = Lysine is chemically modified through conjugation of the epsilon-amino group of the Lysine side chain with (2-[2-(2-Amino-ethoxy)-ethoxy]-acetyl)2-(gamma-Glu)-CO-(CH2 )18-CO2H; SITE 20:) [Example 17]
8.33 nM

Try this binder too: YXQGTFTSDXSQXLDXKAQXAFIEYLLAGGPSSGAPPPSGSEE (non-natural residues, lipidated Lys, C-terminal amide; synthetic construct; SITE 2: note = 2-Aminoisobutyric Acid; SITE 10: note = 3-(4-Pyridyl)-L-alanine; SITE 13: note = alpha-methyl-leucine; SITE 16: note = L-ornithine; SITE 17: note = Lysine is chemically modified through conjugation of the epsilon-amino group of the Lysine side chain with (Glu)-(ga)) [Example 1057]
5.29 nM

Try this binder too: YXQGTFTSDFSXXLDKKAQXAFIEWLLEAGSSSGAPPPSGT (synthetic construct; SITE 2: note = 2-Aminoisobutyric Acid; SITE 12: note = L-ornithine; SITE 13: note = alpha-methyl-leucine; SITE 17: note = Lysine is chemically modified through conjugation of the epsilon-amino group of the Lysine side chain with (2-[2-(2-Amino-ethoxy)-ethoxy]-acetyl)-(gamma-Glu)) [Example 263]
7.53 nM
